- assayed system: human V1a receptor (Homo sapiens)
- Sequence (P37288 whole entry): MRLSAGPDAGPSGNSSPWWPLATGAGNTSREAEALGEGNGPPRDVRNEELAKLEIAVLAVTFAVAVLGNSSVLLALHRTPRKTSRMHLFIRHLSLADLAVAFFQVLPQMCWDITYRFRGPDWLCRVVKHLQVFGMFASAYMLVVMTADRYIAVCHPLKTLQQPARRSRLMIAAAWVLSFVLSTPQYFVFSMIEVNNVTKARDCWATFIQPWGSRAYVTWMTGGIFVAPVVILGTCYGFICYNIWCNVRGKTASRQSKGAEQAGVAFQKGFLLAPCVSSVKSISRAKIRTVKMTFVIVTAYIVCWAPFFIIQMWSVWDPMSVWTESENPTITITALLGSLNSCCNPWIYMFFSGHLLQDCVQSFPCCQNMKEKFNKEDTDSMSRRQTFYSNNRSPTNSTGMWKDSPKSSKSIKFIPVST
- assay details: Cellular in vitro assay for determining vasopressin receptor activity, V1a receptor cell line (CHO, aequorin luminescence)
- condition info: CHO cell line transfected with human V1a receptor; [Arg]-vasopressin at EC50 concentration; read-out: IC50 hV1a
property: pIC50
Expect pIC50 as a plain number equal to -log10 of the molar concentration.

Prompt: Give reported pIC50 value for O=C(NCC(F)(F)F)c1ncccc1-n1cnc(Cn2nc(-c3ccc(Cl)cc3)n(C[C@@H](O)C(F)(F)F)c2=O)n1
Response: 6.68

Prompt: Give reported pIC50 value for CC(F)(F)CNc1ccncc1-n1cnc(Cn2nc(-c3ccc(Cl)cc3)n(C[C@H](O)C(F)(F)F)c2=O)n1
Response: 6.14

Prompt: Give reported pIC50 value for O=C(Nc1ncccc1-n1cnc(Cn2nc(-c3ccc(Cl)cc3)n(C[C@H](O)C(F)(F)F)c2=O)n1)C1CC1F (stereo partly shown) [Example 85]
Response: 8.13

Prompt: Give reported pIC50 value for CN1CC2CC1CN2C(=O)c1ccccc1-n1cnc(Cn2nc(-c3ccc(Cl)cc3)n(C[C@H](O)C(F)(F)F)c2=O)n1 (stereo partly shown)
Response: 7.89

Prompt: Give reported pIC50 value for CN(C)[C@H]1CCN(C(=O)c2ccccc2-n2cnc(Cn3nc(-c4ccc(Cl)cc4)n(C[C@H](O)C(F)(F)F)c3=O)n2)C1
Response: 7.69

Prompt: Give reported pIC50 value for O=C(N[C@H]1C[C@H]1F)c1ncccc1-n1cnc(Cn2nc(-c3ccc(Cl)cc3)n(C[C@H](O)C(F)(F)F)c2=O)n1 (racemic) [Example 456]
Response: 7.92

Prompt: Give reported pIC50 value for O=c1n(Cc2ncn(-c3cnccc3N3CCC(F)(F)CC3)n2)nc(-c2ccc(Cl)cc2)n1C[C@H](O)C(F)(F)F
Response: 8.19

Prompt: Give reported pIC50 value for Cc1ncccc1NC(=O)c1ccccc1-n1cnc(Cn2nc(-c3ccc(Cl)cc3)n(C[C@H](O)C(F)(F)F)c2=O)n1
Response: 8.31

Prompt: Give reported pIC50 value for CONC(=O)c1ccccc1-n1cnc(Cn2nc(-c3ccc(Cl)cc3)n(C[C@H](O)C(F)(F)F)c2=O)n1
Response: 8.66

Prompt: Give reported pIC50 value for O=C(c1cccc(Cl)c1-n1cnc(Cn2nc(-c3ccc(Cl)cc3)n(C[C@H](O)C(F)(F)F)c2=O)n1)N1CCC(O)(C(F)(F)F)C1 (mixture of isomers)
Response: 7.15

Prompt: Give reported pIC50 value for O=C(Nc1ncccc1-n1cnc(Cn2nc(-c3ccc(Cl)cc3)n(C[C@H](O)C(F)(F)F)c2=O)n1)C1CCS(=O)(=O)C1 (mixture of isomers)
Response: 7.48

Prompt: Give reported pIC50 value for Cc1n[nH]c(C)c1C(=O)Nc1ncccc1-n1cnc(Cn2nc(-c3ccc(Cl)cc3)n(C[C@H](O)C(F)(F)F)c2=O)n1
Response: 6.50

Prompt: Give reported pIC50 value for O=C(NCC1CC1)c1cccc(Cl)c1-n1cnc(Cn2nc(-c3ccc(Cl)cc3)n(C[C@@H](O)C(F)(F)F)c2=O)n1
Response: 6.53
